Documented inhibition across a set of compounds
# Target: DNA dC->dU-editing enzyme APOBEC-3A (Homo sapiens)
# Experimental details: blockers of A3A cytidine deamination on DNA – biochemical, FAM/TAMRA oligo cleavage fluorescence, selectivity assay for APOBEC3G inhibitor project, primary screen (AID 493011);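 also: plate controls were A3A with DMSO for no effect and wells lacking A3A enzyme for full effect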
# Measurement context: recombinant A3A, FAM/TAMRA ssDNA deamination fluorescence; at 20 µM; hits give high values
Out of some 330,000 compounds screened, about 1,400 (0.42%) were called active. The full list was thinned out, with actives kept by preference.
Parameter measured: inhibition (%)

1) CC(C)c1ccc(/C=C2\NC(=O)NC2=O)cc1
82.8
2) COc1ccccc1C(CNC(=O)c1cccc(S(=O)(=O)Nc2ccc(F)cc2)c1)N(C)C (stereo unspecified)
-4.98
3) O=C(CSc1ccc([N+](=O)[O-])cn1)Nc1ccc(N2CCOCC2)c(Cl)c1
-1.64
4) O=C(CSc1nccc(=O)[nH]1)Nc1ccc(N2CCOCC2)c(Cl)c1
50
5) CC[C@]1(C(=O)OC)[C@H]2C(=O)N(C)C(=O)[C@H]2[C@H]2CN(C)C(=NCc3ccccc3)N21
2.1
6) Cc1sc(NC(=S)NC(=O)c2cccs2)nc1-c1ccc(CC(C)C)cc1
2.88
7) COc1ccc(/C=C/C(=O)OCC(=O)NCc2cccs2)cc1OC
2.47
8) CSc1ccc(/C=C2\NC(=O)NC2=O)cc1
-4.33
9) CN1C(C(=O)NCC2CC2)CC2Cn3c(nc4ccccc43)C21 (stereo unspecified)
-2.77
10) COc1ccc(N2C(=O)CC(Nc3ccc(F)cc3)C2=O)c([N+](=O)[O-])c1 (stereo unspecified)
-1.69
11) COc1ccc(C2C3=C(OC(C)=O)c4ccccc4C3=Nc3c2c(=O)n(C)c(=O)n3C)cc1 (stereo unspecified)
-1.29
12) CC(C)Oc1ccc(C(CC(=O)N2CCOCC2)C(C)C)cc1 (stereo unspecified)
2.91
13) O=C1c2cccc3cccc(c23)C(=O)N1CCCCCc1n[nH]c(=S)o1
-1.78
14) COc1ccc(CCNC(=O)COC(=O)/C=C/c2cccs2)cc1OC
48.9
15) O=C(CN1C(=O)c2cccc3cccc(c23)C1=O)N1CCCCC1
-1.16
16) Cc1cc(C(=O)N/N=C/c2ccccn2)c2ccccc2n1
-3.08
17) Cc1cc(C)cc(Oc2c(C(F)(F)F)oc3cc(OCC(=O)O)ccc3c2=O)c1
9.37
18) O=C(COC(=O)C1CCN(S(=O)(=O)c2ccc3c(c2)OCCO3)CC1)Nc1ccccc1OC(F)F
3.88
19) Cc1cc2c(cc1C)[n+](C)cn2CC(O)COCC1CC=CCC1 (stereo unspecified)
46.1
20) COc1ccc(Cc2nnc(N/N=C/c3ccccc3O)[nH]c2=O)cc1OC
-1.76
21) O=C(Nc1ccc(N2CCOCC2)c(Cl)c1)c1ccc(S(=O)(=O)N2CCOCC2)cc1
2.6

* * *

This listing pairs compounds with measured inhibition.
# Target: DNA dC->dU-editing enzyme APOBEC-3A (Homo sapiens) (UniProt P31941)
# Sequence (P31941 whole entry, looked up): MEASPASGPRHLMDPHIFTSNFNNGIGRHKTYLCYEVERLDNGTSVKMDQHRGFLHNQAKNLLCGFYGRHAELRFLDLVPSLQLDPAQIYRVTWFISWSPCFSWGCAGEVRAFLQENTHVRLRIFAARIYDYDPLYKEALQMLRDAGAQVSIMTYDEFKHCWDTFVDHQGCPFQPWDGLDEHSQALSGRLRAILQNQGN
# Experimental details: blockers of A3A cytidine deamination on DNA – biochemical, FAM/TAMRA oligo cleavage fluorescence, selectivity assay for APOBEC3G inhibitor project, primary screen (AID 493011);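 also: plate controls were A3A with DMSO for no effect and wells lacking A3A enzyme for full effect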
# Measurement context: recombinant A3A, FAM/TAMRA ssDNA deamination fluorescence; at 20 µM; hits give high values
About 1,400 (0.42%) of roughly 330,000 compounds were called active. For the sample, actives were picked, then their nearest neighbours and some compounds at random.
Parameter measured: inhibition (%)

1) O=C(COC(=O)Cc1ccccc1F)NNC(=O)c1ccc(Cl)cc1
2.91
2) CCN(CC)CCOC(=O)c1ccc(NC(=O)CNC(=O)c2ccccc2)cc1
49.1
3) CCCCNC(=O)CSc1nc2ccc(NC(=O)CSc3nnc(COc4ccccc4C)n3C)cc2s1
-2.55
4) CC[n+]1cc(C)ccc1/C=C/c1ccc(N(C)C)cc1
64.4
5) CC(=O)c1ccc(N2CCN(C(=O)c3ccc4nc[nH]c4c3)CC2)cc1
-2.31
6) C/C(=C\c1ccco1)CN1CCC(N2CCC(C(=O)N3CCOCC3)CC2)CC1
-1.12
7) CCOC(=O)c1ccc(NC(=O)CNC(=O)c2ccco2)cc1
-2.59
8) C/C(N)=C(/C#N)C(=O)COC(=O)C1CCN(C(=O)c2ccc(Cl)cc2)CC1
-0.831
9) CC(C)Cc1ccc(C(C)C(=N)N)cc1 (stereo unspecified)
2.27
10) COc1ccc2[nH]c(=O)c(CNc3ccc(C)c(C)c3)cc2c1
0.515
11) CCN(CC)CCNCC(=O)Nc1ccc(Oc2ccccc2)cc1
-4.52
12) COc1ccc(NC(=O)C(NC(C)=O)C(=O)NCc2ccccc2Cl)cc1 (stereo unspecified)
-1.84
13) COc1ccc(C)cc1NC(=O)CNCc1cccs1
-2.55
14) CCN(C(=O)COc1ccc(C(=O)c2ccccc2)cc1)c1ccccc1
-0.203
15) COc1ccc2[nH]c(C)c(CCN(Cc3cccs3)C(=S)Nc3ccccc3OC)c2c1
-5.52
16) Cc1noc(C)c1S(=O)(=O)N(C)C[C@H]1Oc2ccc(NC(=O)C3CC3)cc2C(=O)N([C@H](C)CO)C[C@@H]1C
-2.35
17) O=C(Nc1cccc(-c2nc3ccccc3[nH]2)c1)c1ccc(C(=O)Nc2cccc(-c3nc4ccccc4[nH]3)c2)cc1
52.5
18) O=C(Nc1ccccc1)c1cc2ccccc2[nH]1
2.51
19) CN(c1ccccc1)S(=O)(=O)c1cc(C(=O)Nc2nc3ccccc3[nH]2)ccc1Cl
2.16
20) NS(=O)(=O)c1cc(C(=O)OCC(=O)NNC(=O)c2ccccc2)ccc1Cl
76
21) COc1ccc(-c2noc(CCC(=O)N3CCN(c4cccc(C)c4)CC3)n2)cc1
3.55

// data source = PubChem BioAssay AID493011
